- assay.notes: Plasma pharmacokinetics, part B
- condition.parameters: human, in vivo, 60 mg, t 1/2, MAD 60 mg q.d., Day 1, mean, n = 8
property: half-life (h)
Express your answer in h, writing the number without its unit.

Ask: # return recorded half-life for entry C=CC(=O)N1CCC[C@@H](n2c(=O)n(-c3ccc(Oc4ccccc4)cc3)c3c(N)nccc32)C1
Reply: 1.98

====

- assay.notes: Plasma pharmacokinetics, part A
- Assay type: in vivo, human
- condition.parameters: human, in vivo, po, 60 mg
property: AUC(0-t) (ng·h/mL)
Only the number, expressed in ng·h/mL, is required.

Ask: Please report the measured AUC(0-t) for C=CC(=O)N1CCC[C@@H](n2c(=O)n(-c3ccc(Oc4ccccc4)cc3)c3c(N)nccc32)C1
Reply: 15.6
